Assay: Water solubility of intermediate carbohydrates
Format: physicochemical
Conditions: read-out: water soluble
Procedure: p-Aminophenylether-b-D-lactopyranoside (AP-Lac, from Toronto Research Chemicals) was used to enzymatically synthesize water soluble (>20 mg/ml) AP-GD2 and AP-GD3 intermediate carbohydrates. The synthesis of AP-GD2 included […] of AP-GD3 (4 mM), […] of UDP-GalNAc (5.4 mM), and 10.5 units of CgtA (construct CJL-30), 10 mM MnCl2 and 24 mM Hepes pH 7.0 in a final volume of 55 ml. […] The measured molecular weights of AP-GD2 (1,218 g/mol) and AP-GD3 (927 g/mol) correspond to expected values. […]
Let's look at some molecules and their measured solubility.

Molecule: CC(=O)NC1C(O)CC(OC2C(O)C(CO)OC(OC3C(CO)OC(Oc4ccc(N)cc4)C(O)C3O)C2O)(C(=O)O)OC1[C@H](O)C(CO)OC1(C(=O)O)CC(O)C(NC(C)=O)C([C@H](O)[C@H](O)CO)O1 (some centres unmarked)
Result: > 20 mg/mL

Enquiry: Dear colleague, please send me the reported solubility for CC(=O)NC1C(OC2C(CO)OC(OC3C(CO)OC(Oc4ccc(N)cc4)C(O)C3O)C(O)C2OC2(C(=O)O)CC(O)C(NC(C)=O)C([C@H](O)C(CO)OC3(C(=O)O)CC(O)C(NC(C)=O)C([C@H](O)[C@H](O)CO)O3)O2)OC(CO)C(O)C1O (some centres unmarked) when you can.
Return: > 20 mg/mL
